Tested on: DU-145
Assay: Growth inhibition of human DU145 cells incubated for 48 hrs by sulforhodamine B assay
Type: functional
Details: DU-145, 48 h

{"columns": ["structure-smiles-string", "GI50 [nM]"],
 "data": [
  ["CC[C@H]1CN2CCc3cc(OC)c(OC)cc3[C@@H]2C[C@@H]1C[C@@H]1c2cc(OC)c(OC)cc2CCN1C(=O)CCNC(=O)[C@H](C)[C@@H](OC)[C@@H]1CCCN1C(=O)C[C@@H](OC)[C@H]([C@@H](C)CC)N(C)C(=O)[C@@H](NC(=O)[C@H](C(C)C)N(C)C)C(C)C", 97.2],
  ["CC[C@H]1CN2CCc3cc(OC)c(OC)cc3[C@@H]2C[C@@H]1C[C@@H]1c2cc(OC)c(OC)cc2CCN1C(=O)[C@H](C)[C@@H](OC)[C@@H]1CCCN1", 3420]
]}

---

Tested on: DU-145
Experiment: Growth inhibition of human DU145 cells incubated for 48 hrs by sulforhodamine B assay
Assay type: functional
Details: DU-145, 48 h
Counter-ions that a name gives are not always drawn.

{"columns": ["compound", "GI50 (µM)"],
 "data": [
  ["CC[C@H]1CN2CCc3cc(OC)c(OC)cc3[C@@H]2C[C@@H]1C[C@@H]1c2cc(OC)c(OC)cc2CCN1C(=O)[C@H](C)[C@@H](OC)[C@@H]1CCCN1C(=O)C[C@@H](OC)[C@H]([C@@H](C)CC)N(C)C(=O)[C@@H](NC(=O)[C@H](C(C)C)N(C)C)C(C)C", 0.0123],
  ["CC[C@H]1CN2CCc3cc(OC)c(OC)cc3[C@@H]2C[C@@H]1C[C@H]1NCCc2cc(OC)c(OC)cc21 [EMETINE HYDROCHLORIDE]", 0.0361],
  ["CC[C@H]1CN2CCc3cc(OC)c(OC)cc3[C@@H]2C[C@@H]1C[C@@H]1c2cc(OC)c(OC)cc2CCN1CCNC(=O)[C@H](C)[C@@H](OC)[C@@H]1CCCN1C(=O)C[C@@H](OC)[C@H]([C@@H](C)CC)N(C)C(=O)[C@@H](NC(=O)[C@H](C(C)C)N(C)C)C(C)C", 0.181]
]}

---

System: NCI-H460
Assay: Growth inhibition of human NCI-H460 cells incubated for 48 hrs by sulforhodamine B assay
Assay type: functional
Details: NCI-H460, 48 h
Listing of entries alongside the reported GI50.

{"columns": ["structure-smiles-string", "tested-on", "GI50"],
 "data": [
  ["CC[C@H]1CN2CCc3cc(OC)c(OC)cc3[C@@H]2C[C@@H]1C[C@@H]1c2cc(OC)c(OC)cc2CCN1C(=O)CCNC(=O)[C@H](C)[C@@H](OC)[C@@H]1CCCN1C(=O)OC(C)(C)C", "NCI-H460", "> 10 µg/mL"],
  ["CC[C@H]1CN2CCc3cc(OC)c(OC)cc3[C@@H]2C[C@@H]1C[C@@H]1c2cc(OC)c(OC)cc2CCN1C(=O)CCN.O=C(O)C(F)(F)F.O=C(O)C(F)(F)F", "NCI-H460", "> 10 µg/mL"],
  ["CC[C@H]1CN2CCc3cc(OC)c(OC)cc3[C@@H]2C[C@@H]1C[C@@H]1c2cc(OC)c(OC)cc2CCN1C(=O)CCNC(=O)OC(C)(C)C", "NCI-H460", "> 10 µg/mL"]
]}
